biological target: acetylcholine receptor; assay: SPR, AchR on CM5 chip, peptide 10 µM
Entries and their measured Binding affinity (RU) follow.
Report as a plain number; the unit RU is understood.

Examples from the recorded data:
- KKEKFR [6mer-1-1168]: 40
- RKDDDR [6mer-1-1192]: 36
- RKDAIR [6mer-1-1174]: 30
- KRMTPR [6mer-1-1179]: 40
- KKHHAK [6mer-1-1164]: 41
- KRHWVK [6mer-1-1161]: 40

The recorded Binding affinity (RU) for entry RKKMAK [6mer-1-1178] equals 29

The recorded Binding affinity (RU) for entry KRMSWK [6mer-1-1134] equals 22

The recorded Binding affinity (RU) for entry RRDCKK [6mer-1-1145] equals 40

The recorded Binding affinity (RU) for entry KKKEAK [6mer-1-1151] equals 34

Taken from patent US20250011363A1.
